Target: Androgen receptor (Homo sapiens)
Sequence (P10275 whole entry): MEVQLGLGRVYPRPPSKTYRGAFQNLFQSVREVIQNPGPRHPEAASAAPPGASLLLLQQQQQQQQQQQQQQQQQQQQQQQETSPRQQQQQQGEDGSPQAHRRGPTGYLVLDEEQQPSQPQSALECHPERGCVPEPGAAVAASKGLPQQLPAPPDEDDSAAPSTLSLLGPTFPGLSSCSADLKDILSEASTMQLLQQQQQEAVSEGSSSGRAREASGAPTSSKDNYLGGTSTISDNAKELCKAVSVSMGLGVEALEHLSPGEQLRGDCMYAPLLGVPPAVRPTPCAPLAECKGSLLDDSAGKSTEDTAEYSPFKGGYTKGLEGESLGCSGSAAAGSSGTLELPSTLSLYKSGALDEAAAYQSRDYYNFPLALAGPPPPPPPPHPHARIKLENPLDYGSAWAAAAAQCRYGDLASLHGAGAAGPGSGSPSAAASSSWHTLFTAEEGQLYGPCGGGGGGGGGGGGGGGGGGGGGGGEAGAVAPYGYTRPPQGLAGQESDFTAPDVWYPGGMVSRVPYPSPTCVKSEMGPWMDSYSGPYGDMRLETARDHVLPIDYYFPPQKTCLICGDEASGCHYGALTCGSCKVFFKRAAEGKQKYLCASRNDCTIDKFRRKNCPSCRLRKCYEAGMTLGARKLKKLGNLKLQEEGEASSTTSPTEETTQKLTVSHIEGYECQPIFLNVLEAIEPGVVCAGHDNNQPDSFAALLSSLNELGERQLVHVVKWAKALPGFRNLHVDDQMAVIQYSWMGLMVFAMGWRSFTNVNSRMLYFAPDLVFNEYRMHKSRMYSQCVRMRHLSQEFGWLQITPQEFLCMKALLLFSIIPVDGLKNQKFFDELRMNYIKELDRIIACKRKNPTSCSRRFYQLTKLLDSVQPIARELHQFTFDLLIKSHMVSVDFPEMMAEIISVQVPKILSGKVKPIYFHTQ
Assay: Agonistic activity (EC50) against human androgen receptor (hAR) in co-transfected CV-1 cell
Format: functional, cell-based
Listed compounds paired with reported pEC50
# pEC50 = -log10(concentration in molar units)

Below, each entry is followed by its recorded pEC50 result.
> print(dat)
                         chemical.structure  recorded.value
1      CC1(C)CNc2cc3nc(O)cc(C(F)(F)F)c3cc21            7.38
2  Cn1c(=O)cc(C(F)(F)F)c2cc3c(cc21)N[C@@H]1CCCC[C@]31C            7.48
3    C[C@@H]1CNc2cc3nc(O)cc(C(F)(F)F)c3cc21            7.21

We next turn to a different compound, shown below.
### Prompt What pEC50 appears in the records for this compound with Androgen receptor (Homo sapiens)? "CCCN1c2cc3c(cc2[C@H]2CCCC[C@H]21)c(C(F)(F)F)cc(=O)n3C"
### Response 6.49
